- targetOrTestSystem: Dihydrofolate reductase (Candida glabrata (strain ATCC 2001 / BCRC 20586 / JCM 3761 / NBRC 0622 / NRRL Y-65 / CBS 138))
- assayNotes: Enzyme Inhibition Assay
- particulars: 25 °C
pIC50: −log10 of the molar value.
measurementType: pIC50

(A) COc1ccc(OC)c(CC#Cc2c(C)nc(N)nc2N)c1
(B) CCc1nc(N)nc(N)c1C#CCc1cc(OC)ccc1OC
Req: Out of A and B , name the one with the higher pIC50. Give the label under which the chosen entry appears.
Resp: B
(B: 8.09, A: 7.49)

* * *

- targetOrTestSystem: Dihydrofolate reductase (Candida glabrata (strain ATCC 2001 / BCRC 20586 / JCM 3761 / NBRC 0622 / NRRL Y-65 / CBS 138), UniProt Q6FPH0)
- Sequence (Q6FPH0 whole entry): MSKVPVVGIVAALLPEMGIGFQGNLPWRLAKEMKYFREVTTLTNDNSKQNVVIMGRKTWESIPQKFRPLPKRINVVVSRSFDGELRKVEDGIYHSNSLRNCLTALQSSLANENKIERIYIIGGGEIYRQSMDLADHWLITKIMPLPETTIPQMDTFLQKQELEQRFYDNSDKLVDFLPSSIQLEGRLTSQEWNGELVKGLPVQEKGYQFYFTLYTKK
- assayNotes: Enzyme Inhibition Assay
- particulars: 25 °C
measurementType: IC50 (nM)

Solved cases (3 shown):
Req: Item COc1cc(CC#Cc2cnc(N)nc2N)cc(OC)c1OC [JMC517532 Compound 3] has what recorded IC50?
Resp: 22

Req: # iterate: COc1cc([C@@H](C#Cc2c(C)nc(N)nc2N)OC)cc(OC)c1OC [JMC517532 Compound 10]
Resp: 30

Req: # iterate: COc1ccc(OC)c(CC#Cc2cnc(N)nc2N)c1
Resp: 21

(a) COc1cc([C@@H](O)C#Cc2c(C)nc(N)nc2N)cc(OC)c1OC [Propargyl-substituted antifolate, 9]
(b) COc1cc(C(C)C#Cc2c(C)nc(N)nc2N)cc(OC)c1OC (stereo not given) [Propargyl-substituted antifolate, 8]
Req: Out of a and b , name the one with the higher IC50. Give the label under which the chosen entry appears.
Resp: a
(a: 39 nM, b: 25 nM)
